ASSAY_SYSTEM: T1, Peptide 8: Biotin-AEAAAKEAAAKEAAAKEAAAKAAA-Tyr-acid (N-terminal biotin; C-terminal acid)
T1 construct: Control peptide without PC
T1 peptide: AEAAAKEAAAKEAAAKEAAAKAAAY
TEST: scFv ELISA
READOUT_LABEL: OD450 (OD450)
Give the quantity in OD450, number only.

Look over these answered cases.
INSERT INTO assay_data (binder, readout_label, units_symbol, number) VALUES
  ('PcOxP_DB04_G01 (scFv, V domains shown, scFv in periplasmic extract) VH: EVQLLESGGGLVQPGGSLRLSCAASGFTFSDYYMEWVRQAPGKGLEWVAASRNKWNDYTTEYADSVKGRFTISRDNSKNTLYLQMNSLRAEDTAVYYCARDYYLSSYWYFDVWGQGTLVTVSS VL: DIVMTQSPDSLAVSLGERATINCKASQSVLSSKNNVNYLAWYQQKPGQPPKLLIYGASNRYIGVPDRFSGSGSGTDFTLTISSLQAEDVAVYYCAQFYQYPLTFGGGTKVEIK', 'OD450', 'OD450', 0.09),
  ('PcOxP_DB04_E08 (scFv, V domains shown, scFv in periplasmic extract) VH: EVQLLESGGGLVQPGGSLRLSCAASGFTSSDFYLEWVRQAPGKGLEWVAASRNKWNDYTTEYADSVKGRFTISRDNSKNTLYLQMNSLRAEDTAVYYCARDYYGSSYWYFDVWGQGTLVTVSS VL: DIVMTQSPDSLAVSLGERATINCTASESLYSSKHKVHYLAWYQQKPGQPPKLLIYGVSNRYIGVPDRFSGSGSGTDFTLTISSLQAEDVAVYYCAQFYSYPLTFGGGTKVEIK', 'OD450', 'OD450', 0.05);

Turning to the following binder.
**Query** Given PcOxP_DB04_G05 (scFv, V domains shown, scFv in periplasmic extract) VH: EVQLLESGGGLVQPGGSLRLSCAASGFTFSDFYMEWVRQAPGKGLEWVAASRNKANDYTTEYADSVKGRFTISRDNSKNTLYLQMNSLRAEDTAVYYCARDFYGSSYWYFDVWGQGTLVTVSS VL: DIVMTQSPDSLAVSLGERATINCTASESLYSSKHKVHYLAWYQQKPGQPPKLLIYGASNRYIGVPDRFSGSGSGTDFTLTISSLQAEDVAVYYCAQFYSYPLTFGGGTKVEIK , state its recorded OD450.
**Result** 0.05
